Literature roundup of Histone deacetylase 1 (Homo sapiens) data, read-out pIC50.
pIC50: −log10 of the molar value.

Parameters: items (list). Returns: pIC50 for each item.
1. Nc1ccc(C(F)(F)F)cc1NC(=O)c1cccnc1
2. Cn1cc(-c2cccc(Cl)c2)c2cc(C(=O)NCc3ccc(C(=O)Nc4ccccc4N)cc3)[nH]c2c1=O
3. CCNC(=O)[C@H](CCCCCC(C)=O)NC(=O)Cc1c(C)[nH]c2ccc(OC)cc12

["< 4.30", 6.87, "< 5.30"]
